Each entry below lists one item and its recorded pIC50 value.
- measurement_target: Intercellular adhesion molecule (ICAM-1), Integrin alpha-L/beta-2 (Homo sapiens, UniProt P05107+P20701)
- Sequence (P20701 whole entry): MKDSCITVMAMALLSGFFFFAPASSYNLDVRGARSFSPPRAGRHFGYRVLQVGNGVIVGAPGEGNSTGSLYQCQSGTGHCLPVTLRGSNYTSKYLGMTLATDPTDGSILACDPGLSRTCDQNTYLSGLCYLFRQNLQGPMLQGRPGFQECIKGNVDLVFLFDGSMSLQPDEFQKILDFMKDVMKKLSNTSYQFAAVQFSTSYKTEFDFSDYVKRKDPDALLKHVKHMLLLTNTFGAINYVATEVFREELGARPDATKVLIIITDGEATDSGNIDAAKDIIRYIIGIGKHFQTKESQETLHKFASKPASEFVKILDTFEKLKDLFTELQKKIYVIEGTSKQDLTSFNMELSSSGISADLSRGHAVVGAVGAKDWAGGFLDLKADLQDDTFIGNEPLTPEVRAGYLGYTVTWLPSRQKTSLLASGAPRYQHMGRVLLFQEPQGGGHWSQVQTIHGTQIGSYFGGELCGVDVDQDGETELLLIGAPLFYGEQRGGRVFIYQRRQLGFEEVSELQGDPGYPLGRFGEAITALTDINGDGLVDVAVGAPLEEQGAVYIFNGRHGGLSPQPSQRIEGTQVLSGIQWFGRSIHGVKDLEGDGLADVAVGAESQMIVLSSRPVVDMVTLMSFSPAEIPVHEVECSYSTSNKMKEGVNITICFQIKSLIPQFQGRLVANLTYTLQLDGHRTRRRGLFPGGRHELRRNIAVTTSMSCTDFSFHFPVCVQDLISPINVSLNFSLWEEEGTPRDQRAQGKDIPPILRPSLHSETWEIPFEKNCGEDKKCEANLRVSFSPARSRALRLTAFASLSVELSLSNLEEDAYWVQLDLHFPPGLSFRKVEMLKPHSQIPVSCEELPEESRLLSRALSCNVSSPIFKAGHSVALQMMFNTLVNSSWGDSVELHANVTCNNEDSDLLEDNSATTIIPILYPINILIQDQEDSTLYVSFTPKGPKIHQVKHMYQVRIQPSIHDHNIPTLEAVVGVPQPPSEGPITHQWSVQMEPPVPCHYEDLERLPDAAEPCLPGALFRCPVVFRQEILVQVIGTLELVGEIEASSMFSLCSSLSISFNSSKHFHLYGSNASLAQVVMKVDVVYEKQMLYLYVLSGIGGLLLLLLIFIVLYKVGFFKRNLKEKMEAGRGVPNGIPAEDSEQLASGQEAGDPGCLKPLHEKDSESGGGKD
- Sequence (P05362 whole entry, further chain): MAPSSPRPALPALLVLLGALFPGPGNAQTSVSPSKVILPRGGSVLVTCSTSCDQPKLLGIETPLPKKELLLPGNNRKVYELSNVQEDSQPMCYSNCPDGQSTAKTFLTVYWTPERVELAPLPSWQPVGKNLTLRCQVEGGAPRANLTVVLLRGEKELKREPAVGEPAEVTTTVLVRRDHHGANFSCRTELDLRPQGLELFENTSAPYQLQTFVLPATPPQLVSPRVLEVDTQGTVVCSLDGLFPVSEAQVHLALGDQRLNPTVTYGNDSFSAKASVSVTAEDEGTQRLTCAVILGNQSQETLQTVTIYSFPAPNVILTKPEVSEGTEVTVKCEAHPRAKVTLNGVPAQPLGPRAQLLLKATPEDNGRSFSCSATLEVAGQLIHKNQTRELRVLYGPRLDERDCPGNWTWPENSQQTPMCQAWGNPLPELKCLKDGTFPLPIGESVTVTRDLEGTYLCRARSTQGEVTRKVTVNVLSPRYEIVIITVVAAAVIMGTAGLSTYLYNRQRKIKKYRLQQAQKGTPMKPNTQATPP
- Sequence (P05107 whole entry): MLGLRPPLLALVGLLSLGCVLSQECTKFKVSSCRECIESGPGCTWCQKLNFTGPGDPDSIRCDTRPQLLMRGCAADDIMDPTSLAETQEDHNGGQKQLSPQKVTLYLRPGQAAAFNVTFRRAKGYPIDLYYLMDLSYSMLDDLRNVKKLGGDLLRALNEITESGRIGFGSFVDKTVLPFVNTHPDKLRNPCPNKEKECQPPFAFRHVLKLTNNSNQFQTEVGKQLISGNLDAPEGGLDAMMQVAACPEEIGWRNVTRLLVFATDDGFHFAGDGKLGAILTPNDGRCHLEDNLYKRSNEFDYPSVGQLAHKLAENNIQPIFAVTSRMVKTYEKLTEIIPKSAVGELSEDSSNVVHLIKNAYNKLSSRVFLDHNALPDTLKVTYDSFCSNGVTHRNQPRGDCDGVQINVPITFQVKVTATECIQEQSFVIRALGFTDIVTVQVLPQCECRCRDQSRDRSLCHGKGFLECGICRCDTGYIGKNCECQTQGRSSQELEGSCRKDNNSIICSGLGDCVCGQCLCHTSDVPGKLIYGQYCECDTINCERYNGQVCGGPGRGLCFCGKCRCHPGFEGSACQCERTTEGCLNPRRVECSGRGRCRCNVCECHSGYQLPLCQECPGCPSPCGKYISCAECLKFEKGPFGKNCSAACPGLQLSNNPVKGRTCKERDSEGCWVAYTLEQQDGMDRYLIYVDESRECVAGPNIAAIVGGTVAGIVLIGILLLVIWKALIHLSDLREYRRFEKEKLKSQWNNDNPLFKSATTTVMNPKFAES
- assay_notes: Inhibitory concentration against integrin LFA-1/ICAM-1 binding complex
pIC50: −log10 of the molar value.
measured_endpoint: pIC50

{"compound": "COCCCNc1nc(-c2ccc(Sc3ccccc3C(C)C)c(C(F)(F)F)c2)cs1", "numeric_result": 4.98}
{"compound": "CC(=O)N[C@@H]1CCN(c2cc(-c3ccc(Sc4ccc5c(c4)OCCO5)c(C(F)(F)F)c3)ccn2)C1", "numeric_result": 6.95}
{"compound": "CC(C)c1ccccc1Sc1ccc(-c2ccnc(N3CCC[C@H]3CO)c2)cc1C(F)(F)F (stereo in doubt; 16x)", "numeric_result": 6.58}
{"compound": "CC(C)c1ccccc1Sc1ccc(-c2cc(N3CCCC3CO)ncn2)cc1C(F)(F)F (stereo in doubt)", "numeric_result": 6.32}
{"compound": "COc1ccccc1Sc1ccc(-c2ccnc(N3CCC(C(=O)O)CC3)c2)cc1C(F)(F)F", "numeric_result": 6.95}
{"compound": "COc1ccccc1Sc1ccc(-c2ccnc(N3CC[C@@H](N(C)C(C)=O)C3)c2)cc1C(F)(F)F", "numeric_result": 7.06}
{"compound": "CC(=O)N1CCN(C(=O)/C=C/c2ccc(Sc3ccccc3C(C)C)c(C(F)(F)F)c2)CC1", "numeric_result": 7.22}
{"compound": "CCN(C(C)=O)C1CCN(c2cc(-c3ccc(Sc4ccccc4C(C)C)c(C(F)(F)F)c3)ncn2)C1 (stereo not given)", "numeric_result": 6.52}
{"compound": "COc1ccccc1Sc1ccc(-c2ccnc(N3CC[C@@H](NC(C)=O)C3)c2)cc1C(F)(F)F", "numeric_result": 7.06}
{"compound": "CC(=O)N1CCCN(c2cc(-c3ccc(Sc4ccc5c(c4)OCCO5)c(C(F)(F)F)c3)ccn2)CC1", "numeric_result": 6.44}
